# TARGET OF ASSAY: BRM (Homo sapiens, UniProt P51531)
# Construct: In-Cell Western Screen of BRM Degradation in SW1573 Cells; endogenous in cells; host or cells: SW1573
# Sequence (P51531 whole entry): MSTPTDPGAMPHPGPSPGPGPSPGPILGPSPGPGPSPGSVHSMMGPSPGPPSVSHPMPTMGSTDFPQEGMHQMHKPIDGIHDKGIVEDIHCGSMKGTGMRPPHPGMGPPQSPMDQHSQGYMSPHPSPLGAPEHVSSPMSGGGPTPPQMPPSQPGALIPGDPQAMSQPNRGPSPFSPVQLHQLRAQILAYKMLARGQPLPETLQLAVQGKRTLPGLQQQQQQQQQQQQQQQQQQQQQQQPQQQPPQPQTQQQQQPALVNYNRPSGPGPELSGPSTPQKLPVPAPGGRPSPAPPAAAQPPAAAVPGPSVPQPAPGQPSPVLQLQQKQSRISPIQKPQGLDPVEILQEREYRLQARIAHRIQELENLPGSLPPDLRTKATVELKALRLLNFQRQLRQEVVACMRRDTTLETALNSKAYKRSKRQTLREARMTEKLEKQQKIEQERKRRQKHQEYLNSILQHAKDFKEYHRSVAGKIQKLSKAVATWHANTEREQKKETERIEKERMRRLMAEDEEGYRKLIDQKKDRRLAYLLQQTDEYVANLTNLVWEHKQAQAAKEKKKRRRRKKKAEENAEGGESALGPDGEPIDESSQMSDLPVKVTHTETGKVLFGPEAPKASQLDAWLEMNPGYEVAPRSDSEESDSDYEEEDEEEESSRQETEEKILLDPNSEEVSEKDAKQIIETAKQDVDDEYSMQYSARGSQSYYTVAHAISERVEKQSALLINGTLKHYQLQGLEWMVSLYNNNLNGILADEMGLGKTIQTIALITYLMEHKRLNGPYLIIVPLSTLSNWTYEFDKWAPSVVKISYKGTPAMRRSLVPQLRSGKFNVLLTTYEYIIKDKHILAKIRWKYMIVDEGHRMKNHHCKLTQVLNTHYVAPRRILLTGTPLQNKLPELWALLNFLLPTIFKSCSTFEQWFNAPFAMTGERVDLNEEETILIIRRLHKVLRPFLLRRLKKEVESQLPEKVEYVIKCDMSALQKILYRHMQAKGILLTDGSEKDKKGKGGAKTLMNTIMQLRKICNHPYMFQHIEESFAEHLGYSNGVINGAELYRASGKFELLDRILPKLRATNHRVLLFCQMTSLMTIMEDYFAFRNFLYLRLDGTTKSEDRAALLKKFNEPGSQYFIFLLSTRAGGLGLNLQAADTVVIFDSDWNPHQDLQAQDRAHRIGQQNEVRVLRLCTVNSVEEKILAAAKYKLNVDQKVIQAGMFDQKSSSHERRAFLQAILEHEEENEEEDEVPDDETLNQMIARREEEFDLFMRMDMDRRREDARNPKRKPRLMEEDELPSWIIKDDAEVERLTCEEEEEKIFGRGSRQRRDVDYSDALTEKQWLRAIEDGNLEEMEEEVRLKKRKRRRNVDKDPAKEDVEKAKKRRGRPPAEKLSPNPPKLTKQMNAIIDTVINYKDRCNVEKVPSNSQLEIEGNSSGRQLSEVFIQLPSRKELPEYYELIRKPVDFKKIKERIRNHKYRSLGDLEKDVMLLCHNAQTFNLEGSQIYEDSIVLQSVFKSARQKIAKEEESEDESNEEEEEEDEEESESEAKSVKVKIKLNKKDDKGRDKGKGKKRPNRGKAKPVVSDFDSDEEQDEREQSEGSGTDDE
# PROCEDURE SUMMARY: In-cell Western screen of BRM degradation in SW1573 cells (Dmax and DC50)
# Format: cell-based
# APPLIED CONDITIONS: BRM degradation, SW1573 cells; read-out: DC50
MEASUREMENT NAME: DC50

Param item: Cc1ncsc1-c1ccc([C@H](C)NC(=O)[C@@H]2C[C@@H](O)CN2C(=O)[C@H](c2onc(OCCN3CCC(O[C@H]4C[C@H](Oc5cc(N6C7CCC6CN(c6cc(-c8ccccc8O)nnc6N)C7)ccn5)C4)CC3)c2F)C(C)C)cn1 [compound 269] ; param system: BRM (Homo sapiens, UniProt P51531); output DC50: > 30 nM

Simply: CC[C@H](NC(=O)[C@@H]1C[C@@H](O)CN1C(=O)[C@H](c1cc(OCCN2CCC(O[C@H]3C[C@H](Oc4cc(N5C6CCC5CN(c5cc(-c7ccccc7O)nnc5N)C6)ccn4)C3)CC2)no1)C(C)C)c1ccc(-c2scnc2C)cc1 [compound 350] , BRM (Homo sapiens, UniProt P51531), DC50 = > 30 nM

Considering Cc1ncsc1-c1ccc([C@H](C)NC(=O)[C@@H]2C[C@@H](O)CN2C(=O)[C@H](c2cc(OCCCc3ccc(C(C)n4cc(-c5cc(-c6ccccc6O)nnc5N)cn4)cc3)no2)C(C)C)cc1 (stereo partly shown) [compound 59] , its DC50 with BRM (Homo sapiens, UniProt P51531) was recorded as > 30 nM

Lab note: molecule COc1cc(-c2scnc2C)ccc1CNC(=O)[C@@H]1C[C@@H](O)CN1C(=O)[C@@H](c1cc(OCCN2CCC(O[C@H]3C[C@H](Oc4cc(N5C6CCC5CN(c5cc(-c7ccccc7O)nnc5N)C6)ccn4)C3)CC2)no1)C(C)C [compound 215] tested on BRM (Homo sapiens, UniProt P51531); recorded DC50 was < 2.5 nM

* * *

# TARGET OF ASSAY: BRM (Homo sapiens, UniProt P51531)
# Construct: In-Cell Western Screen of BRM Degradation in SW1573 Cells; endogenous in cells; host or cells: SW1573
# PROCEDURE SUMMARY: In-cell Western screen of BRM degradation in SW1573 cells (Dmax and DC50)
# Format: cell-based
# APPLIED CONDITIONS: target protein degradation; read-out: BRM DC50
MEASUREMENT NAME: DC50

Per the records, this compound ( Cc1ncsc1-c1ccc([C@H](C)NC(=O)[C@@H]2C[C@@H](O)CN2C(=O)[C@@H](c2cc(OCCN3CCC(N4CC(Oc5cc(N6C7CCC6CN(c6cc(-c8ccccc8O)nnc6N)C7)ccn5)C4)CC3)no2)C(C)C)cc1 [compound 374] ) has DC50 equal to > 30 nM

DC50 reported for this compound CC(C)[C@@H](C(=O)N1C[C@H](O)C[C@H]1C(=O)N[C@@H](C)c1ccc(-n2ccccc2=O)cc1)c1cc(OCCN2CCC(O[C@H]3C[C@H](Oc4cc(N5C6CCC5CN(c5cc(-c7ccccc7O)nnc5N)C6)ccn4)C3)CC2)no1 [compound 373] : > 30 nM

* * *

# TARGET OF ASSAY: BRM (Homo sapiens, UniProt P51531)
# Construct: In-Cell Western Screen of BRM Degradation in SW1573 Cells; endogenous in cells; host or cells: SW1573
# PROCEDURE SUMMARY: In-cell Western screen of BRM degradation in SW1573 cells (Dmax and DC50)
# Format: cell-based
# APPLIED CONDITIONS: target protein degradation; read-out: BRM DC50
Task for the reader: assign each of the following compounds its reported DC50.

Input Cc1nccn1-c1ccc([C@H](C)NC(=O)[C@@H]2C[C@@H](O)CN2C(=O)[C@H](c2cc(N3CCC(OC4CCN(C[C@H]5C[C@H](Oc6cc(N7C8CCC7CN(c7cc(-c9ccccc9O)nnc7N)C8)ccn6)C5)CC4)CC3)no2)C(C)C)cc1 [compound 477] . Output DC50: > 30 nM

// Cc1ncsc1-c1ccc([C@H](C)NC(=O)[C@@H]2C[C@@H](O)CN2C(=O)[C@@H](c2cc(OCC[C@H]3CC[C@H](O[C@H]4C[C@H](Oc5cc(N6C7CCC6CN(c6cc(-c8ccccc8O)nnc6N)C7)ccn5)C4)CC3)no2)C(C)C)cc1 [compound 488] : DC50 value = < 2.5 nM

The recorded DC50 for CC(C)[C@@H](C(=O)N1C[C@H](O)C[C@H]1C(=O)N[C@@H](C)c1ccc(-c2nncs2)cc1)c1cc(OCCN2CCC(O[C@H]3C[C@H](Oc4cc(N5C6CCC5CN(c5cc(-c7ccccc7O)nnc5N)C6)ccn4)C3)CC2)no1 [compound 364] is > 30 nM

Field DC50 (entry Cc1ncsc1-c1ccc([C@H](C)NC(=O)[C@@H]2C[C@@H](O)CN2C(=O)[C@@H](c2cc(OCCN3C[C@H]4C[C@@H](O[C@H]5C[C@H](Oc6cc(N7C8CCC7CN(c7cc(-c9ccccc9O)nnc7N)C8)ccn6)C5)C[C@H]4C3)no2)C(C)C)cc1 [compound 360] ) reads < 2.5 nM

Record Cc1ncsc1-c1ccc([C@H](C)NC(=O)[C@@H]2C[C@@H](O)CN2C(=O)[C@@H](c2cc(OCCN3CCC(O[C@H]4C[C@H](OCC#CCn5cc(-c6cc(-c7ccccc7O)nnc6N)cn5)C4)CC3)no2)C(C)C)cc1 [compound 395] . Reported DC50: < 2.5 nM

DC50 reported for this compound Cc1nccn1-c1ccc([C@H](C)NC(=O)[C@@H]2C[C@@H](O)CN2C(=O)[C@H](c2cc(OCC#Cc3ncc(O[C@H]4C[C@H](Oc5cc(N6C7CCC6CN(c6cc(-c8ccccc8O)nnc6N)C7)ccn5)C4)cn3)no2)C(C)C)cc1 [compound 393] : > 30 nM

The compound listed as Cc1ncsc1-c1ccc([C@H](C)NC(=O)[C@@H]2C[C@@H](O)CN2C(=O)[C@@H](c2cc(OCCN3CCC(OC4CN(c5cc(N6C7CCC6CN(c6cc(-c8ccccc8O)nnc6N)C7)ccn5)C4)CC3)no2)C(C)C)cc1 [compound 355] has a reported DC50 of < 2.5 nM

Cc1ncsc1-c1ccc([C@H](C)NC(=O)[C@@H]2C[C@@H](O)CN2C(=O)[C@@H](c2cc(OC3CN(CCN4CCC(O[C@H]5C[C@H](Oc6cc(N7C8CCC7CN(c7cc(-c9ccccc9O)nnc7N)C8)ccn6)C5)CC4)C3)no2)C(C)C)cc1 [compound 371] has a reported DC50 of < 2.5 nM
